Source: patent US20200123233A1

Documented CVS-11 neutralizing antibody titer (RFFIT), IU/ml across a set of binders
Target: Rabies virus glycoprotein G, Challenge Virus Standard (CVS)-11 strain (Rabies virus, strain CVS-11 (genotype 1 Lyssavirus)) (UniProt O92284)
Sequence (O92284 20-524 limits assumed): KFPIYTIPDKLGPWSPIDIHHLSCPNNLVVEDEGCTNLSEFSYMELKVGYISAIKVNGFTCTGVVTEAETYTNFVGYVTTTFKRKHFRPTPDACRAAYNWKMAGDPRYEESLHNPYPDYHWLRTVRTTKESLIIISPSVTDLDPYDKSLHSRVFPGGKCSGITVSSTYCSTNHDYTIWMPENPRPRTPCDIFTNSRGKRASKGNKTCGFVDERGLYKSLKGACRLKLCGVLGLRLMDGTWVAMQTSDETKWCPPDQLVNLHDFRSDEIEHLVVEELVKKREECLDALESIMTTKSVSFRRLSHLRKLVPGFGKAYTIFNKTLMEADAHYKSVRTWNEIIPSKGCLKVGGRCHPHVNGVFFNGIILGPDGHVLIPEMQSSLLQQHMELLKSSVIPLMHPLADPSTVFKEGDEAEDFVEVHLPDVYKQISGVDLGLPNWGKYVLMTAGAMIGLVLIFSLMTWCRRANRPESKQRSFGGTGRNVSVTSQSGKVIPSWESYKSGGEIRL
Assay: cell-based or functional assay
property: CVS-11 neutralizing antibody titer (RFFIT), IU/ml (IU/ml)

# binder, assay_result
measured = [
    ("LG214C10 (VHH) VHH: EVQLVESGGGLVQPGGSLRLSCAASGFIFGSYDMSWVRQAPGKGPEWVSGINSGGGSTGYADSVKGRFTISRDNAKNTLYLQMNSLKPEDTAVYYCSTNLYPTTDDVWGQGTQVTVSS", 4.24),
    ("LG212B12 (VHH) VHH: EVQLVESGGGLVQPGGSLRLSCAASGFTFGNYDMSWVRQAPGKGPEWVSGINTGGSTLYADSVKGRFTISRDNAKNTLYLQMNSLKSEDTAVYYCAKDLYGSTWYTDYWSQGTQVTVSS", 31),
    ("LG214H10 (VHH) VHH: EVQLVESGGGSVQAGGSLRLSCAASGGTFNPYVMAWFRQAPGNEREFVARIRWSGGDAYYDDSVKGRFAITRDAAKNTVHLQMNSLKPEDTAVYYCAAATYGYGSYTYGGSYDLWGQGTQVTVSS", 11.4),
    ("LG212A2 (VHH) VHH: EVQLVESGGGLVQAGGSLRLSCAASGRTFDTYFVGWFRQAPGKERDFVAAISWSGDRTFYADSVKGRFTISRDNAKNTEYLQMNSLKPEDTAVYYCAAREYGRLYSDSEAYDYWGQGTQVTVSS", 1.62),
]
